I'd appreciate it if you could supply melting point values for the items below.

Entry `Cn1c(CN)nc(-c2ccncn2)cc1=O` , melting point reported as 153 to 155 °C

The measured melting point associated with `CC(=O)c1c(C)c2ccccc2n1N` reads 94 to 98 °C

Note to self: melting point recorded for `CCC(=O)N1Cc2cn(C)nc2-c2cc(Cl)ccc21` was 137 to 138 °C

Notebook: `CC(C)n1nc(-c2c(-c3ccccc3)nn3ccc(OCC(=O)NC4CC4)cc23)ccc1=O` , melting point read as 199 to 200 °C

melting point reported for this compound `O=C1CCCN1[C@H]1CC[C@@H](C(=O)O)CC1` : 188 °C

# melting point (compound: `CC1CCN(C2(c3ccc(C#CC(=O)Nc4ccc(-c5ccc(Cl)cc5)cc4)cc3)CC2)CC1` ) is 128 to 129 °C

Input `Cc1noc(CC(=O)O)n1` . Output melting point: 95 °C

Reported melting point for `CC(C)n1c(=O)n(C(=O)NCC2CCN(CC3(C(=O)O)CCC3)CC2)c2ccccc21` was 173 °C

Please fill in: melting point reported for `CCN(CC)Cc1nc2cc(OC)c(OC)cc2c(-c2ccc(OC)c(OC)c2)c1C(C)=O` = 146 to 148 °C

`CCCCCCCCNC(=O)N1CCC(Oc2ccc(CCNC[C@H](O)COc3ccc(O)cc3)cc2)CC1` yielded melting point of 79 to 81 °C

Consider `c1ccc(COc2ccc(-c3nc(COc4cccc(CCCn5ccnc5)c4)co3)cc2)cc1` . Its measured melting point is 144 to 145 °C

Looking up `Fc1ccccc1C1=CCc2nnc(-c3ccncc3)n2-c2ccc(Cl)cc21` , I see its melting point listed as 198 to 200 °C

Record CN(C(=O)c1ccc2nonc2c1)C1CCOC(=O)C1 (centres undefined) . Reported melting point: 169 to 171 °C

Record `CCOC(=O)C1=C(O)c2cc3ccccc3n2CCC1` , field melting point: 74 to 81 °C

// melting point value for CC(C)OCCCNC(=O)CN1C(=O)C2(COc3cc4c(cc32)CCO4)c2ccccc21 (centres undefined) : 149 to 151 °C

// sample Cc1n[nH]c(C)c1-c1nn(C(C)c2oc3ccccc3c(=O)c2-c2cccc(F)c2)c2ncnc(N)c12 (centres undefined) , its melting point was 240 to 243 °C

melting point recorded for this compound, `C=C(C)Cc1c(C)c(NC(C)=O)cc(C)c1O` , is 183 to 185 °C

Input CCOc1ccc(C(O)(C(F)(F)F)C(F)(F)Cl)cc1 (centres undefined) . Output melting point: 84 to 86 °C

Record summary for `CC(=O)N1CCC(C)(C)c2cc(F)cc(CCN3CCN(c4nsc5ccc(F)cc45)CC3)c21` : reported melting point = 128 °C

These data points were gathered from a melting point compilation (Tetko et al.; mined from patent text by program, amines drawn as free bases though some values may be those of a salt).
